Task for the reader: assign each of the following binders its reported Fold over buffer.
System Tested: T1, IL-12 receptor endogenously expressed on THP-1 cells (UniProt P42701 24-662; Q99665 24-862)
T1 construct: whole, on cells
T1 sequence (Q99665 24-862, chain 2 of 2, other chains not shown): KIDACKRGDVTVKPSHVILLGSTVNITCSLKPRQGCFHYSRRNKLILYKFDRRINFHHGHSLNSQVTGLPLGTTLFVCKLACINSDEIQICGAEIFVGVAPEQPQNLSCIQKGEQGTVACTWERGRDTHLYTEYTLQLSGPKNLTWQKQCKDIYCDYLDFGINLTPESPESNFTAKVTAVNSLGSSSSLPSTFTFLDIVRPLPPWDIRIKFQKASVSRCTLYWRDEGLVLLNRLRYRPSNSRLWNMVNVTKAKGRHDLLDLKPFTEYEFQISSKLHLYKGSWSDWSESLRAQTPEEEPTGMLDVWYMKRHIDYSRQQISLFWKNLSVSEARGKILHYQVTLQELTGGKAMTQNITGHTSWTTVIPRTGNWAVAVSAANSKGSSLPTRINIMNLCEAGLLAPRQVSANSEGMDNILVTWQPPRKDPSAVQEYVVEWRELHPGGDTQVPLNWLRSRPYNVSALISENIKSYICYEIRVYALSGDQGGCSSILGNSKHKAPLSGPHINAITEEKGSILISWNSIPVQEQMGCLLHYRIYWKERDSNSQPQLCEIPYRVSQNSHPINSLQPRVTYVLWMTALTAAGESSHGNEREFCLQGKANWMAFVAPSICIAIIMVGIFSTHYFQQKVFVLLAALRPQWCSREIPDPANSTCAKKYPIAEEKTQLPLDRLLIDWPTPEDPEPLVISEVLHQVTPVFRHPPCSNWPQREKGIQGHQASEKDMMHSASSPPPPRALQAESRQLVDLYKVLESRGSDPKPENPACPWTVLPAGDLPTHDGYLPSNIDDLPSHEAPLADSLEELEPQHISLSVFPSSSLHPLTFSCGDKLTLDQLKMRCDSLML
Assay Text: FACS, hybridoma supernatant, THP-1
// note: answer is a bare numeric in fold

Q) Provide one value: measured Fold over buffer of 85802_10M17 (antibody, V domains shown, also called 85802_10M17A) VH: EVLLVESGGGLVKPGGSLRLSCAASGFTFSSYSMNWVRQAPGKGLEWVSSISSSSDYIHYADSVRGRFTISRDNAKNSLYLQMNSLRAEDTAVYYCARSELGFDYWGQGTLVTVSS VL: DIQMTQSPSSVSASVGDRVTITCRASQGISIWLAWYQQKPGKAPKPLIYAASSLQSGVPSRFSGSGSGTDFTLTISSLQPEDFATYYCQQANSFPLTFGGGTKVEIK
A) 21

Q) Using known records, supply Fold over buffer for 85802_06A17 (antibody, V domains shown, also called 85802_06A17A) VH: EVQLVQSGAEVKKPGESLKISCKGSGYSFTSYWIGWVRQMPGKGLECMGIIYPGDSDTRYSPSFQGQVTISADKSISTAYLQWSSLKASDTAMYYCARHEGAYWYFDLWGRGTLVTVSS VL: QSVLTQPPSVSGAPGQRVTISCTGSSSNIGAGYDVHWYQQLPGTAPKVLIYGNSNRPSGVPDRFSGSKSGTSASLAITGLQAEDEADYYCQSLDTSHVVFGGGTKLTVL
A) 28

Q) Please give measured Fold over buffer of the following entry: 85802_06F06 (antibody, V domains shown, also called 85802_06F06A) VH: QVQLQESGPGLVKPSETLSLTCTVSGGSISSYYWSWIRQPPGKGLEWFGYIYDSGSTNYNPSLKSRVTISVDTSKNQFSLKLSSVTAADTAVYYCARGSYFWYFDLWGRGTLVTVSS VL: SYELTQPPSVSVSPGQTASITCSGDKLGAKYASWYHQKPGQSPVLVIYQDTKRPSGIPERFSGSNSGNTATLTISGTQAMDEADYYCQAWDSSTVVFGGGTKLTVL
A) 35

Q) Answer with reported Fold over buffer of 85802_06H06 (antibody, V domains shown, also called 85802_06H06A) VH: QVHLQESGPGLVKPSETLSLTCTVSGGSISYYYWNWIRQPPGKGLEWIASIYNSGNINYNPSLKSRVTISVDTSKNQFSLKLTSVTAADTAVYYCARGGYSYGYFDNWGQGILVTVSS VL: SYELTQPPSVSVSPGQTASITCSGRELGNKYAYWYQQKPGQSPVLVIYEDYKRPSGIPERFSGSNSGNTATLTISGTQAMDEADYYCQAWDSSTVIFGGGTKLTVL
A) 34
